system: T-47D breast; assay: NCI tumour cell line growth inhibition, 48 h
Quick reference: TGI of the listed items.

Cc1cc(S(=O)(=O)Nc2nc(N)nc(N3N=CCC3C)n2)c(S)cc1Cl (stereo not given) = > 10 µM
CN(C)c1ccc(/C=C2\Oc3cc(O)ccc3C2=O)cc1 = > 100 µM
O=C(NCCO)c1ccc(Cl)cc1 = > 100 µM
CCOC(=O)[C@@H](C)C[C@H](Cc1ccccc1)NC(=O)c1csc([C@@H](C[C@H](C(C)C)N(C)C(=O)[C@@H](NC(=O)[C@H]2C[C@H](O[Si](C)(C)C(C)(C)C)CCN2C)C(C)C)OC(C)=O)n1 = > 8.33 µM
COc1cc2ccnc3c2c(c1O)N(C)C=C3 = > 24.7 µM
COc1cc2c(cc1C)NC(=O)/C2=C\c1cc(OC)c(OC)c(OC)c1 = > 100 µM
CCOC(=O)C(O)(NC(C)=O)C(F)(F)F (stereo not given) = > 100 µM
N#CCc1nc(C#N)c(N)o1 = > 100 µM

Quick one: TGI for CCOC(=O)C1=C(C)NC(=S)NC1c1cccc(O)c1 (stereo not given) ?
> 100 µM

Quick one: TGI for "COC(=O)[C@@H]1N2C(=S)N(c3ccccc3)C(=O)[C@H]2SC1(C)C" ?
> 100 µM

---

test system: MOLT-4 leukemia; test: NCI tumour cell line growth inhibition, 48 h
readout kind: TGI

Some solved cases for reference:
CN(C)c1ccc(/C=C2\Oc3cc(O)ccc3C2=O)cc1 = > 100 µM
CCOC(=O)C(C)(C)Oc1ccc2c(=O)cc(-c3ccc(Cl)cc3)oc2c1 = > 100 µM

Quick one: TGI for "Cc1c(CCCl)c(=O)n2c([nH]c3ccccc32)c1C#N" ?
1.44 µM

Quick one: TGI for "S=C(Nc1ccc(-c2nc3ccccc3[nH]2)cc1)NC1CCCCC1" ?
> 100 µM

Quick one: TGI for O=c1ccn(C2OC(CO)C(O)C2O)c(=O)[nH]1 (centres undefined) ?
> 1000 µM

Quick one: TGI for "COc1cc(-c2cc(=O)c3cc4c(cc3[nH]2)OCO4)cc(OC)c1OC" ?
> 100 µM

Quick one: TGI for "CCN(CC)CCNc1c(OC)cc(C)c2sc3ccccc3c(=O)c12" ?
4.58 µM

Quick one: TGI for "COc1cc(-c2cnn(C)c2)ccc1Nc1ncc2ccnc(N[C@@H](C)C(C)(C)C)c2n1" ?
> 100 µM

---

Quick reference: TGI of the listed items.
test system: OVCAR-3 ovarian; assay: NCI tumour cell line growth inhibition, 48 h

Some solved cases for reference:
N#Cc1c2c(c(N3CCOCC3)n3c1nc1ccccc13)CCCC2 = 36.5 µM
CCOC(=O)C1=C(C)NC(=S)NC1c1cccc(O)c1 (configuration not stated) = > 100 µM
O=c1[nH]nc(Cc2ccc(Cl)cc2)n1O = > 100 µM
CCN(CC)CCn1c2c3ccccc3ccc2c2oc(=O)c3ccccc3c21 = > 100 µM
COc1cc(/C=C2/SC(c3ccccc3)N(c3cccc([N+](=O)[O-])c3)C2=O)cc(OC)c1OC (configuration not stated) = > 100 µM
COc1cc(-c2cc(=O)c3cc4c(cc3[nH]2)OCO4)cc(OC)c1OC = > 100 µM
COc1ccc(OC)c2cc(Cc3ccc(N(C)C)cc3)c(=O)c(Cc3ccc(N(C)C)cc3)cc12 = > 100 µM
C=CCn1c(C)nc2cc(Nc3nc(Nc4ccc5nc(C)n(CC=C)c5c4)c4ccccc4n3)ccc21 = 0.342 µM

Quick one: TGI for COc1ccc(NC(=O)C2C(=O)N(c3ccc(OC)cc3)C(=O)/C2=N/O)cc1 (configuration not stated) ?
> 59.9 µM

Quick one: TGI for COC1=CC23C=CC1[C@@H](c1ccccc1)C2=C(C)C(=O)N3C(=O)NC1CCCCC1 (some centres not stated) ?
59.8 µM

Quick one: TGI for "CCCCCCNC(=O)C1=C(C)NC(C)=C(C(=O)NCCCCCC)C1" ?
> 100 µM

Quick one: TGI for COS(=O)c1cc(Cl)cc(Cl)c1O (configuration not stated) ?
> 100 µM

Provenance of the data: PubChem BioAssay (NCI)
